These measurements were taken from patent US10266535B2.

Parameter pIC50: see the listing below.
# System: BaF3-FLT3-ITD-F691L (stably expressing FLT3/ITD F691L mutant activated kinase)
# experiment summary: Cell proliferation, Cell Titer-Glo, BaF3-FLT3-ITD-F691L
# Type: cell-based
# condition: Mus musculus; incubated for 72 hours; read-out: BaF3-FLT3-ITD-F691L IC50
Structures can show the parent of a compound that is named as a salt.
pIC50 is a log-scale quantity: -log10 of the concentration expressed in molar.

CC(C)[C@@H](N)C(=O)N1CCC[C@@H](n2nc(-c3ccc(Oc4ccccc4)cc3)c3c(N)ncnc32)C1 (stereo in doubt) [Compound 45] : 6.43
CC(C)C[C@@H](N)C(=O)N1CCC[C@@H](n2nc(-c3ccc(Oc4ccccc4)cc3)c3c(N)ncnc32)C1 [Compound 27] : 6.55
CS(=O)(=O)N1CCC[C@@H](n2nc(-c3ccc(Oc4ccccc4)cc3)c3c(N)ncnc32)C1 [Compound 30] : 5.28

Looking up CC(C)[C@@H](N)C(=O)NC1CCC(n2nc(-c3ccc(Oc4ccccc4)cc3)c3c(N)ncnc32)CC1 (some centres unmarked) [Compound 86, hydrochloride] , I found its pIC50 recorded as 6.82

Looking up Nc1ncnc2c1c(-c1ccc(Oc3ccccc3)cc1)nn2[C@@H]1CCCN(C(=O)[C@H](N)Cc2c[nH]cn2)C1 [Compound 7] , I found its pIC50 recorded as 6.60

----------
# System: TEL-BaF3-FLT3-D835Y (stably expressing FLT3 D835Y mutant activated kinase)
# experiment summary: Cell proliferation, Cell Titer-Glo, TEL-BaF3-FLT3-D835Y
# Assay type: cell-based
# condition: Mus musculus; incubated for 72 hours; read-out: TEL-BaF3-FLT3-D835Y IC50
# True = IC50 below 90 nM (exclusive); False = IC50 at/above 90 nM

// below: answered compounds
Nc1ncnc2c1c(-c1ccc(Oc3ccccc3)cc1)nn2[C@@H]1CCCN(C(=O)[C@H](N)Cc2ccc(O)cc2)C1 [Compound 10] : True
Nc1ncnc2c1c(-c1ccc(Oc3ccccc3)cc1)nn2[C@@H]1CCCN(C(=O)[C@H](N)Cc2c[nH]cn2)C1 [Compound 7] : False
CC(O)C(=O)N1CCC[C@@H](n2nc(-c3ccc(Oc4ccccc4)cc3)c3c(N)ncnc32)C1 (stereo partly shown) [Compound 23] : False

Please indicate whether the reported IC50 of Nc1ncnc2c1c(-c1ccc(Oc3ccccc3)cc1)nn2[C@@H]1CCCN(S(N)(=O)=O)C1 [Compound 4] is strictly below 90 nM.
False

Please indicate whether the reported IC50 of CS(=O)(=O)N1CCC[C@@H](n2nc(-c3ccc(Oc4ccccc4)cc3)c3c(N)ncnc32)C1 [Compound 30] is strictly below 90 nM.
False

Please indicate whether the reported IC50 of NC(=O)C(=O)N1CCC[C@@H](n2nc(-c3ccc(Oc4ccccc4)cc3)c3c(N)ncnc32)C1 [Compound 5] is strictly below 90 nM.
True

----------
# Test system: MV4-11 (expressing FLT3/ITD mutant gene)
# experiment summary: Cell proliferation, Cell Titer-Glo, MV4-11
# Assay type: cell-based
# condition: Homo sapiens, MV4-11; incubated for 72 hours; read-out: MV4-11 IC50
quantity: pIC50
pIC50 is a log-scale quantity: -log10 of the concentration expressed in molar.

CC[C@@H](C)[C@@H](N)C(=O)N1CCC[C@@H](n2nc(-c3ccc(Oc4ccccc4)cc3)c3c(N)ncnc32)C1 [Compound 25] : 6.92

Readout pIC50 for CC(C)[C@@H](N)C(=O)N1CCC[C@@H](n2nc(-c3ccc(Oc4ccccc4)cc3)c3c(N)ncnc32)C1 (stereo in doubt) [Compound 45] , test system MV4-11 (expressing FLT3/ITD mutant gene), was 7.57

Readout pIC50 for Nc1ncnc2c1c(-c1ccc(Oc3ccccc3)cc1)nn2[C@@H]1CCCN(C(=O)[C@@H](N)Cc2ccc(O)cc2)C1 [Compound 11] , test system MV4-11 (expressing FLT3/ITD mutant gene), was 7.66

Readout pIC50 for CCC(C)(C)C(=O)N1CCC[C@@H](n2nc(-c3ccc(Oc4ccccc4)cc3)c3c(N)ncnc32)C1 [Compound 50] , test system MV4-11 (expressing FLT3/ITD mutant gene), was 5.62

Readout pIC50 for CCS(=O)(=O)N1CCC[C@@H](n2nc(-c3ccc(Oc4ccccc4)cc3)c3c(N)ncnc32)C1 [Compound 41] , test system MV4-11 (expressing FLT3/ITD mutant gene), was 6.24

Readout pIC50 for C[C@@H](N)C(=O)N1CCC[C@@H](n2nc(-c3ccc(Oc4ccccc4)cc3)c3c(N)ncnc32)C1 [Compound 47] , test system MV4-11 (expressing FLT3/ITD mutant gene), was 7.27

Readout pIC50 for CC(Br)C(=O)N1CCC[C@@H](n2nc(-c3ccc(Oc4ccccc4)cc3)c3c(N)ncnc32)C1 (some centres unmarked) [Compound 37] , test system MV4-11 (expressing FLT3/ITD mutant gene), was 6.64

Readout pIC50 for Nc1ncnc2c1c(-c1ccc(Oc3ccccc3)cc1)nn2[C@@H]1CCCN(C(=O)[C@H](N)Cc2ccccc2)C1 [Compound 26] , test system MV4-11 (expressing FLT3/ITD mutant gene), was 6.55

Readout pIC50 for CC(C)C[C@@H](N)C(=O)N1CC[C@@H](n2nc(-c3ccc(Oc4ccccc4)cc3)c3c(N)ncnc32)C1 [Compound 28] , test system MV4-11 (expressing FLT3/ITD mutant gene), was 6.92

Readout pIC50 for Nc1ncnc2c1c(-c1ccc(Oc3ccccc3)cc1)nn2[C@@H]1CCCN(C(=O)CC2CC2)C1 [Compound 52] , test system MV4-11 (expressing FLT3/ITD mutant gene), was 6.39

Readout pIC50 for CC(C)CC(=O)N1CCC[C@@H](n2nc(-c3ccc(Oc4ccccc4)cc3)c3c(N)ncnc32)C1 [Compound 53] , test system MV4-11 (expressing FLT3/ITD mutant gene), was 5.47

Readout pIC50 for Nc1ncnc2c1c(-c1ccc(Oc3ccccc3)cc1)nn2[C@@H]1CCCN(C(=O)CCCl)C1 [Compound 36] , test system MV4-11 (expressing FLT3/ITD mutant gene), was 6.17

Readout pIC50 for N#CCC(=O)N1CCC[C@@H](n2nc(-c3ccc(Oc4ccccc4)cc3)c3c(N)ncnc32)C1 [Compound 20] , test system MV4-11 (expressing FLT3/ITD mutant gene), was 6.70

Readout pIC50 for CN1CCC(C(=O)N2CCC[C@@H](n3nc(-c4ccc(Oc5ccccc5)cc4)c4c(N)ncnc43)C2)CC1 [Compound 33] , test system MV4-11 (expressing FLT3/ITD mutant gene), was 6.80
